# measurement target: κ-opioid receptor (Homo sapiens)
# Sequence (P41145 whole entry): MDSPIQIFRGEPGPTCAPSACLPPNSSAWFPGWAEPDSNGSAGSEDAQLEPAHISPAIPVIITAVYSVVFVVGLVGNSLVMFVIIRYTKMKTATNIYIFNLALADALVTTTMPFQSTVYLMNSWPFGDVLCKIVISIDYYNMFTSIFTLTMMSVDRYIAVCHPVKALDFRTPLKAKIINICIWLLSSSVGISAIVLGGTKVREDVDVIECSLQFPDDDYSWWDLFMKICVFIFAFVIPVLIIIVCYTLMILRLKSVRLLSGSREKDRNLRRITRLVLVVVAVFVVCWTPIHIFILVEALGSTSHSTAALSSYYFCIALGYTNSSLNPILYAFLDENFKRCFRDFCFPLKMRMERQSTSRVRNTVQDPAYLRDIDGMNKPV
# method: FLIPR intracellular Ca2+, agonist mode
outcome measure: EC50

Problem: Requested read-out: EC50. Entry: COc1cc2c(cc1O)CC[n+]1cc3c(OC)c(OC)ccc3c(C)c1-2 [DHCB]
Result: > 500 µM
